- EXPERIMENTAL DETAILS: Photolysis of Fraction A to Fraction B under UV, followed by reverse phase HPLC
- Format: physicochemical
- CONDITION DESCRIPTION: water under UV irradiation; UV irradiation in water; read-out: half-life of conversion to Fraction B
ASSAY METRIC: half-life (min)
Give a bare numeral; the unit min is implied.

query: Return reported half-life; argument: CC1=C(C)C(=O)C(CCC(C)(O)C(=O)O)=C(C)C1=O (single isomer, unassigned)
result: 26
